method: Mitochondrial toxicity (Glu/Gal) assay
Assay type: cell-based
conditionSet: mitotoxicity score, Glu/Gal assay
measure: Score

As a guide, the following entries are already answered.
Entry CCc1nc2cc(C)c(Cl)cn2c1C(=O)NCc1ccc(-c2nc3n(n2)CCN(S(=O)(=O)C(F)(F)F)C3)c(F)c1 [Compound 9] — recorded Score = [x]1

Looking up Cc1ccc2nc(C3CC3)c(C(=O)NCc3ccc(-c4nc5n(n4)CCN(S(=O)(=O)C(F)(F)F)C5)cc3)n2c1 [Compound 30] , I see its Score listed as [x]1

The reported Score of the compound CCc1nc2ncc(C)cn2c1C(=O)NC(C)(C)c1ccc(-c2nc3n(n2)CCN(S(=O)(=O)C(F)(F)F)C3)cc1 [Compound 83] was [x]1

Summary for this compound, CCc1nc2ncc(Cl)cn2c1C(=O)NCc1ccc(-c2cc3n(n2)CCN(S(=O)(=O)C(F)(F)F)C3)cc1 [Compound 91] : Score is [x]3

Form: compound = CCc1nc2ncc(C)cn2c1C(=O)NCc1ccc(-c2nn3c(c2C)CN(S(=O)(=O)C(F)(F)F)CC3)cc1 [Compound 85] ; Score = [x]3

***
Per the record, CCc1nc2ncc(C)cn2c1C(=O)NCc1cccc(Cc2cc3n(n2)CCN(S(=O)(=O)C(F)(F)F)C3)c1 [Compound 95] has Score of [x]1

Score in this record for Cc1cnc2nc(C3CC3)c(C(=O)NCc3ccc(-c4cc5n(n4)CCN(CC(F)(F)F)C5)cc3)n2c1 [Compound 107] : [x]0
